# protocol: Permeability across blood brain barrier in NMRI mouse stage 2 CNS model
# Type: ADME
# cond: read-out: BBR
readout: Kp
Could you keep your reply to the number by itself?

Name the recorded Kp of the item `Nc1nc(NC2CCCCC2)sc1C(=O)c1c(F)cccc1F` in your answer.
3.3

---

# protocol: Selectivity index, ratio of EC50 for human MRC-5 cells to EC50 for bloodstream-form Trypanosoma brucei
# Format: toxicity
# cond: read-out: Selectivity Index
List of selectivity ratio values.

compound: C[C@@H]1CN(CC(=O)c2sc(Nc3ccc(F)c(F)c3)nc2N)C[C@H](C)O1
readout: selectivity ratio
recorded_measurement: 1000
//
compound: Nc1nc(Nc2ccc(F)c(F)c2)sc1C(=O)CN1CCOCC1
readout: selectivity ratio
recorded_measurement: 2000
//
compound: Nc1nc(NC2CCCCC2)sc1C(=O)c1c(F)cccc1F
readout: selectivity ratio
recorded_measurement: 11
//
compound: Nc1nc(NC2CCCCC2)sc1C(=O)c1ccc(OC(F)F)cc1
readout: selectivity ratio
recorded_measurement: 267
//
compound: Nc1nc(NC2CCCCC2)sc1C(=O)C1CCC1
readout: selectivity ratio
recorded_measurement: 5

Now examine the next entry.
Complete the entry with selectivity ratio for CC(OCC(=O)c1sc(Nc2cccc(OC(F)F)c2)nc1N)C(F)(F)F (stereo unspecified)
2500

---

# protocol: Fraction unbound in NMRI mouse
# Type: ADME
readout: fraction unbound
Answer as a number with no unit attached.

Input `Nc1nc(NC2CCCCC2)sc1C(=O)c1c(F)cccc1F` , output reported fraction unbound.
0.0063

---

# protocol: Cmax in NMRI mouse at 100 mg/kg, ip by UPLC-MS/MS analysis
# Assay type: ADME, organism-based
# Set-up: dose 100 mg/kg, route ip
# cond: in vivo
readout: Cmax (ng/mL)
Report the value in ng/mL with no unit label.

Provide Cmax value for the following compound: `CC(C)(O)CC(=O)c1sc(Nc2ccc(F)c(F)c2)nc1N`
36000

---

# System: Trypanosoma brucei
# protocol: Antiparasitic activity against bloodstream-form Trypanosoma brucei in presence of 5% Co2 incubated for 69 hrs followed by resazurin addition further incubated for 4 hrs
# Type: functional, organism-based
readout: pEC50
Note on pEC50: it is the negative log10 of concentration, concentration in mol/L.

Note pEC50 for the molecule shown: `Nc1nc(NC2CCCCC2)sc1C(=O)c1c(F)cccc1F`
6.96

Input `C[C@@H]1CN(CC(=O)c2sc(Nc3ccc(F)c(F)c3)nc2N)C[C@H](C)O1` , output reported pEC50.
7.30

Return reported pEC50. Input molecule: CC(OCC(=O)c1sc(Nc2cccc(OC(F)F)c2)nc1N)C(F)(F)F (stereo not drawn)
7.70

---

# protocol: AUC in NMRI mouse at 10 mg/kg, […] by UPLC-MS/MS analysis
# Assay type: ADME, organism-based
# Set-up: dose 10 mg/kg
# cond: in vivo
readout: AUC (ng·h/mL)
The response must be a number in ng·h/mL with no trailing unit.

Identify measured AUC associated with `Nc1nc(NC2CCCCC2)sc1C(=O)c1c(F)cccc1F`
66000

---

# protocol: Antiproliferative activity against human MRC5 cells in presence of 5% Co2 incubated for 69 hrs followed by resazurin addition further incubated for 4 hrs
# Type: toxicity, cell-based
readout: EC50 at 69 h (µM)
Report only the number, with the unit µM understood.

Below: 2 compounds and their reported EC50 at 69 h.
compound: CC(OCC(=O)c1sc(Nc2ccc(C(F)(F)F)nc2)nc1N)C(F)(F)F (stereo not drawn)
EC50 at 69 h / µM: 50
//
compound: CC(C)OCCC(=O)c1sc(Nc2ccc(F)c(F)c2)nc1N
EC50 at 69 h / µM: 50

Write down EC50 at 69 h measured for item CC(OCC(=O)c1sc(Nc2cccc(OC(F)F)c2)nc1N)C(F)(F)F (stereo not drawn)
50
